# System: K. pneumoniae DSM-30104
# Assay type: cell-based, Klebsiella pneumoniae
# CONDITION_CONTEXT: DSM-30104
PARAMETER_MEASURED: MIC K. pneumoniae [DSM-30104]

* N=C(N)NCCC[C@H](NC(=O)[C@H]1NC(=O)[C@H](CO)NC(=O)[C@H]2NC(=O)[C@H](CCC(N)=O)NC(=O)[C@@H](N)Cc3c[nH]c4c(cccc34)O[C@@H]2c2c[nH]c3cc(ccc23)[C@@H]1CCCN)C(=O)N[C@@H](Cc1c[nH]c2ccccc12)C(=O)O | 4 µg/mL

---

# Tested on: K. pneumoniae DSM-30104
# Assay type: cell-based, Klebsiella pneumoniae
# CONDITION_CONTEXT: DSM-30104
PARAMETER_MEASURED: MIC K. pneumoniae [DSM-30104] (µg/mL)

• C[C@@H](O)[C@@H]1NC(=O)[C@H]2NC(=O)[C@H](CC(=O)O)NC(=O)[C@@H](N)Cc3c[nH]c4c(cccc34)O[C@@H]2c2c[nH]c3cc(ccc23)[C@H](CCCN)[C@@H](C(=O)N[C@@H](CCCNC(=N)N)C(=O)N[C@@H](Cc2c[nH]c3ccccc23)C(=O)O)NC1=O = 16
• C[C@@H](O)[C@@H]1NC(=O)[C@H]2NC(=O)[C@H](CO)NC(=O)[C@@H](N)Cc3c[nH]c4c(cccc34)O[C@@H]2c2c[nH]c3cc(ccc23)[C@H](CCCN)[C@@H](C(=O)N[C@@H](CCCNC(=N)N)C(=O)N[C@@H](Cc2c[nH]c3ccccc23)C(=O)O)NC1=O = 16
• C[C@@H](O)[C@@H]1NC(=O)[C@H]2NC(=O)[C@H](CC(N)=O)NC(=O)[C@@H](N)Cc3c[nH]c4c(cccc34)O[C@@H]2c2c[nH]c3cc(ccc23)[C@H](CCCN)[C@@H](C(=O)N[C@@H](CCC(N)=O)C(=O)N[C@@H](Cc2c[nH]c3ccccc23)C(=O)O)NC1=O = 16
